Collected from the literature: IC50 of various compounds toward UniProtKB P07607.
Sequence (P07607 whole entry): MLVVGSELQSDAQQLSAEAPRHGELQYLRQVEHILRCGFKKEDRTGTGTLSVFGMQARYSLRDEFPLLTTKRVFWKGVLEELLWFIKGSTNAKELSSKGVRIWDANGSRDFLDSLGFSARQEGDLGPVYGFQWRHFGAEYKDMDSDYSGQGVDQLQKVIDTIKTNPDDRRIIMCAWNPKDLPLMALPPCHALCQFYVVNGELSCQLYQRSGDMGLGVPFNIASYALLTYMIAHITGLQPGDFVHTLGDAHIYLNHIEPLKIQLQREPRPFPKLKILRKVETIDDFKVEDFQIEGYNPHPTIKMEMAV
Report as a plain number; the unit µM is understood.

Ask | Requested read-out IC50, target or system UniProtKB P07607, entry Cc1nc2ccc(CN(C)c3cnc(C(=O)N[C@@H](CCC(=O)O)C(=O)O)nc3)cc2c(=O)[nH]1
Reply | 2.34

Ask | Requested read-out IC50, target or system UniProtKB P07607, entry CCN(Cc1ccc2nc(CF)nc(O)c2c1)c1cnc(C(=O)N[C@H](CCC(=O)O)C(=O)O)s1
Reply | 0.22

Ask | Requested read-out IC50, target or system UniProtKB P07607, entry C#CCN(Cc1ccc2nc(C)nc(O)c2c1)c1cnc(C(=O)N[C@H](CCC(=O)O)C(=O)O)s1
Reply | 0.23

Ask | Requested read-out IC50, target or system UniProtKB P07607, entry Cc1nc(O)c2cc(CNc3cnc(C(=O)N[C@H](CCC(=O)O)C(=O)O)s3)ccc2n1
Reply | 7.12

Ask | Requested read-out IC50, target or system UniProtKB P07607, entry O=C(O)CC[C@@H](NC(=O)c1ccc(N(CCF)Cc2ccc3nc(CF)nc(O)c3c2)s1)C(=O)O
Reply | 1.07

Ask | Requested read-out IC50, target or system UniProtKB P07607, entry C=CCN(Cc1ccc2nc(C)[nH]c(=O)c2c1)c1ccc(C(=O)N[C@@H](CCC(=O)O)C(=O)O)nc1
Reply | 0.76

Ask | Requested read-out IC50, target or system UniProtKB P07607, entry Cc1nc2ccc(CNc3ccc(C(=O)N[C@@H](CCC(=O)O)C(=O)O)cc3)cc2c(=O)[nH]1
Reply | 4.5

Ask | Requested read-out IC50, target or system UniProtKB P07607, entry Cc1nc(O)c2cc(Cn3ccc4cc(C(=O)N[C@@H](CCC(=O)O)C(=O)O)ccc43)ccc2n1
Reply | 3.27

Ask | Requested read-out IC50, target or system UniProtKB P07607, entry Cc1nc2ccc(CN(CCN)c3ccc(C(=O)N[C@@H](CCC(=O)O)C(=O)O)c(F)c3)cc2c(=O)[nH]1
Reply | 11.7

Ask | Requested read-out IC50, target or system UniProtKB P07607, entry CCCN(Cc1ccc2nc(C)nc(O)c2c1)c1ccc(C(=O)N[C@H](CCC(=O)O)C(=O)O)s1
Reply | 1.85
